TEST_METHOD_NOTES: soluble on expression in E. coli; label from the status in PepcDB or PDB records
MEASURED_PARAMETER: soluble on expression in E. coli

In the examples that follow, each entry is paired with its recorded soluble on expression in E. coli.
>  <SEQ_TEXT>
MTKFESSVKVIPYSQERVYEKLADLSNLEAIKDRLPEDKVKNMSFDTDTLSFNVDPVGQLTLRIIEREPSKCIKFETTNSPLPFNMWIQLVAVSEEECKLKVTIGLEINPFMKAMVQKPLNEGLEKMADMLSMIQYLEHHHHHH

>  <soluble on expression in E. coli>
soluble

$$$$
>  <SEQ_TEXT>
MSEKTMRVQDYPLATRCPEHILTPTGKPLTDITLEKVLSGEVGPQDVRISRQTLEYQAQIAEQMQRHAVARNFRRAAELIAIPDERILAIYNALRPFRSSQAELLAIADELEHTWHATVNAAFVRESAEVYQQRHKLRKGS

>  <soluble on expression in E. coli>
soluble

$$$$
>  <SEQ_TEXT>
SDRAEVRNIPFKLGMYLTVGGVVNSNATRFSINVGESTDSIAMHMDHRFSYGADQNVLVLNSLVHNVGWQQEERSKKFPFTKGDHFQITITFDTHTFYIQLSNGETVEFPNRNKDAAFNLIYLAGDARLTFVRLE

>  <soluble on expression in E. coli>
soluble

$$$$
>  <SEQ_TEXT>
MSLVDTEIWLRLMSISSLYGDDMVRIAHWLARQSHIDAVVLQQTGLTLRQAQRFLSFPRKSIESSLCWLEQPNHHLIPADSEFYPPQLLATTDYPGALFVEGELHALHSFQLAVVGSRAHSWYGERWGRLFCETLAKHGVTITSGLARGIDGVAHKAALQVNGVSIAVLGNGLNTIHPRRHARLAASLLEQGGALVSEFPLDVPPLAYNFPRRNRIISGLSKGVLVVEAALRSGSLVTARCALEQGREVFALPGPIGNPGSEGPHWLIKQGAILVTEPEEILENLQFGLHWLPDAPENSFYSPDQEDVALPFPELLANVGDEVTPVDVVAERAGQPVPEVVTQLLELELAGWIAAVPGGYVRLRRACHVRRTNVFVEGHHHHHH

>  <soluble on expression in E. coli>
soluble

$$$$
>  <SEQ_TEXT>
MGSDKIHHHHHHMLTDMQRDSASSSTVTTEQIVYGALPLTTINEPECRAIAITSINGSATLSGVSGPMGDQTDADLLIQLRGWADAIVVGAETARKENYGPVVLPHGIKNQRQKLGRCGLPKLTLLSKSLYFDFSSELFSPDLPSELSPLVITQQPANNSEQWDQRLQKLIDVGVEVIVAPTSTNPLKIAFDALHARRLKKISIEGGPSVYRQALSLGIVDRLHLTIAPNIICPVESPLFGKISDDSFTTRLVLEMLSSSPNGLIFSRYKVIRDTLGNPTQ

>  <soluble on expression in E. coli>
not soluble

$$$$

Now take the following sequence into account.
INPUT: Find the measured soluble on expression in E. coli of `MAEKAENLPSSSAEASEEPSPQTGPNVNQKPSILVLGMAGSGKTTFVQRLTAFLHARKTPPYVINLDPAVSKVPYPVNVDIRDTVKYKEVMKEFGMGPNGAIMTCLNLMCTRFDKVIELINKRSSDFSVCLLDTPGQIEAFTWSASGSIITDSLASSHPTVVMYIVDSARATNPTTFMSNMLYACSILYRTKLPFIVVFNKADIVKPTFALKWMQDFERFDEALEDARSSYMNDLSRSLSLVLDEFYCGLKTVCVSSATGEGFEDVMTAIDESVEAYKKEYVPMYEKVLAEKKLLDEEERKKRDEETLKGKAVHDLNKVANPDEFLESELNSKIDRIHLGGVDEENEEDAELERS` and report it.
OUTPUT: not soluble

----------
TEST_METHOD_NOTES: soluble on expression in E. coli; label from the status in PepcDB or PDB records
MEASURED_PARAMETER: soluble on expression in E. coli

>  <SEQ_TEXT>
MGSDKIHHHHHHMTYTSLQSPADKDYLYDIRVAHLYGNLLNTYGDNGNVLMLKYVGEKLGIRMTFDIVSIGDDFDANKYDMVFFGGGQDYEQSIVAKDLPNKRSAIASFIQNNKVVLAICGGFQLLGQYYVQANGVRIDGIGVMGHYTLNQKDNRYIGDIKIHNDEFNETYYGFENHQGRTFLSDDEKPLGRVIYGNGNNKEDGSEGVHYKNVFGSYFHGPILSRNANLAYRLVTTALHNKYGIDIQLPRYEDILSLEVAEEYGDVKSKAEFEK

>  <MEASURED_PARAMETER>
soluble on expression in E. coli

>  <VALUE_REPORTED>
not soluble

$$$$
>  <SEQ_TEXT>
MAHHHHHHMDLNDFLRNTKTAAQDGSAGVRTLLSGHKRFADTNEASAEASSSGAGASGKRPRRSGTAEGLNIRAAQEALAQERGNTSAQAQQQRAQAELLSEQAAARMVHQVLEYVMQVELGGRHNAAKGGIAPFVPSAAQLAAEKAMWTPAAGYVIHHVVPATLDTSPHTLESLMSVTEKERVPDGVRALRGTLQVFDTERDLVGGVRTGMAPHLRTHVLEVLEKGLHGRAWLRDDAAVATQISALGKPTTPDKGPSSVLLFGDLATASVANSDATSSARDTASAGDEASKPRSKGFSLAAFLNGNDPTSSSSDGEDP

>  <MEASURED_PARAMETER>
soluble on expression in E. coli

>  <VALUE_REPORTED>
not soluble

$$$$
>  <SEQ_TEXT>
MGSDKIHHHHHHLDELRSGLDKPSHFRLGLAMWSHSNWQESVYGHGIKQAERLARYATIFNTVEGNTSFYATPAQQTVMNWHSATPDDFRFTFKLPQTITHQRLLQHCGQELKDFFQVMAPLIDKTGIWKIQLPAHFGPENLPVLAQFLNQVPQGLTYGVEVRHAAFFAKGDAERALNRLLIDKKVNRIIMDSRPLFALPPSNAAIIDAHKKKPRVPVHAIATANNPVVRFIGQPDDAVAQLAQQGVSALPKNNDAFFDNWLAQLPLWLAEGREPYLFIHTPDNETAPELAIRLYQTLRSQIAAQIQLAELSLLEKIPEETSTQMGLAW

>  <MEASURED_PARAMETER>
soluble on expression in E. coli

>  <VALUE_REPORTED>
not soluble

$$$$

----------
TEST_METHOD_NOTES: soluble on expression in E. coli; label from the status in PepcDB or PDB records
MEASURED_PARAMETER: soluble on expression in E. coli

In the examples that follow, each entry is paired with its recorded soluble on expression in E. coli.
>  <SEQ_TEXT>
MSLDVSVSATGHDNVTARHDSTLELTTDDFLTPAGDCILGIDADCSPAAFSDAFVAACQDAAATITLVLDTPQHRDEITGSGHPDLTFTNDRSMVGRTSTYVDDRTVFVDADKAAADVDREMVAALADGAPLTATLRVDEGHHHHHH

>  <soluble on expression in E. coli>
soluble

$$$$
>  <SEQ_TEXT>
MILSDKDIIDYVTSKRIIIKPFNKDFVGPCSYDVTLGDEFIIYDDEVYDLSKELNYKRIKIKNSILVCPLNYNLTEEKINYFKEKYNVDYVVEGGVLGTTNEYIELPNDISAQYQGRSSLGRVFLTSHQTAGWIDAGFKGKITLQIVAFDKPVILYKNQRIGQLIFSKLLSPADVGYSERKTSKYAYQKSVMPSLIHLDNHKKD

>  <soluble on expression in E. coli>
soluble

$$$$
>  <SEQ_TEXT>
MAQFTEEEKTIRRIEKRFNKGMVQYGLIEEGDKVLVGLSGGKDSLALVELLGKRSHIFKPRFSVVAVHVVMKNIPYQSDWDYLREHAEKNGVPLVVYETSFDPSTDTRKSPCFLCSWNRRKALFTVAKEQGCNKIALGHHMDDILETLLMNITYQGAFSTMPPRLVMNKFDMTIIRPMCLVHEADLLELAQIRGYRKQVKNCPYESQSSRSDMKGILRQLEKMNPEARYSLWGSMTNVQEELLPKEVEF

>  <soluble on expression in E. coli>
not soluble

$$$$
>  <SEQ_TEXT>
MGDTTFLIEFDHPAAVYSPGQNVAGKLTIRNRNALNALALKICIHGDIETLWRKFENKGRYDRHGRWYRSSEHINYTSKINVLEGIAQPWSSIENANNKIPGGVNIFPFLFQLPANLPPSFEGTHGNVRYSVHVELDRPWRMNVEAKRVFSVIPVIDLNSIPKTINPMIVSSCKHSGLFSNKEVKVKISIPKSGYIPGETIQVSALIQNHTKKPIYSIKAKLEQHVHYQAQQENSHLFPEEHCHKHCEHKTAQTTMSKVEKSCHVEFCSNSQINVPLVLPNQLVPSFRTGIIEVDYCIIVDIGENKKLRCELPITVGTIPIGVFTRPIAYSITEAPPKYENFSQIVEDSQASAPPPEYENEEHF

>  <soluble on expression in E. coli>
not soluble

$$$$
>  <SEQ_TEXT>
MEKKTIVLGVIGSDCHAVGNKILDHSFTNAGFNVVNIGVLSSQEDFINAAIETKADLICVSSLYGQGEIDCKGLREKCDEAGLKGIKLFVGGNIVVGKQNWPDVEQRFKAMGFDRVYPPGTSPETTIADMKEVLGVE

>  <soluble on expression in E. coli>
soluble

$$$$

Now take the following sequence into account.
INPUT: Find the measured soluble on expression in E. coli of `MSLAAHYLDFERPIADLESKIEELSRLSETAGPGAFDTEIQALRDRAQELRKEAYANLDAWQKTMVARHPQRPHLRDYVAGLIDEFVELRGDRKFADDQAIVGGLGRFRGQPVVVMGHEKGHDTTTRLKHNFGMARPEGYRKAVRLMDMAERFNLPVITFVDTAGAYPGLGAEERGQAEAIARSTERCLTLGVPMVATIVGEGGSGGAIALAGANRVLILEHSIYSVISPEGAASILWRDGARAKDAATQMRITAQDLIKLGIVDRIVEEPAGGAHSDTEAAIQAVGDAVEDELKAMAAMSPAELKKQRSDRFYAIGREGHHHHHH` and report it.
OUTPUT: soluble
